molecular target: PI3Kγ (Homo sapiens, UniProt P48736); assay: PI3K Inhibition Assay (33P-ATP, PI(4,5)P2 substrate), PI3Kγ isoform; conditions: 2 nM final enzyme, 3 μM ATP, 30 μM PI(4,5)P2; competitive tight binding Ki fit
Sequence (P48736 whole entry, species assumed, canonical isoform): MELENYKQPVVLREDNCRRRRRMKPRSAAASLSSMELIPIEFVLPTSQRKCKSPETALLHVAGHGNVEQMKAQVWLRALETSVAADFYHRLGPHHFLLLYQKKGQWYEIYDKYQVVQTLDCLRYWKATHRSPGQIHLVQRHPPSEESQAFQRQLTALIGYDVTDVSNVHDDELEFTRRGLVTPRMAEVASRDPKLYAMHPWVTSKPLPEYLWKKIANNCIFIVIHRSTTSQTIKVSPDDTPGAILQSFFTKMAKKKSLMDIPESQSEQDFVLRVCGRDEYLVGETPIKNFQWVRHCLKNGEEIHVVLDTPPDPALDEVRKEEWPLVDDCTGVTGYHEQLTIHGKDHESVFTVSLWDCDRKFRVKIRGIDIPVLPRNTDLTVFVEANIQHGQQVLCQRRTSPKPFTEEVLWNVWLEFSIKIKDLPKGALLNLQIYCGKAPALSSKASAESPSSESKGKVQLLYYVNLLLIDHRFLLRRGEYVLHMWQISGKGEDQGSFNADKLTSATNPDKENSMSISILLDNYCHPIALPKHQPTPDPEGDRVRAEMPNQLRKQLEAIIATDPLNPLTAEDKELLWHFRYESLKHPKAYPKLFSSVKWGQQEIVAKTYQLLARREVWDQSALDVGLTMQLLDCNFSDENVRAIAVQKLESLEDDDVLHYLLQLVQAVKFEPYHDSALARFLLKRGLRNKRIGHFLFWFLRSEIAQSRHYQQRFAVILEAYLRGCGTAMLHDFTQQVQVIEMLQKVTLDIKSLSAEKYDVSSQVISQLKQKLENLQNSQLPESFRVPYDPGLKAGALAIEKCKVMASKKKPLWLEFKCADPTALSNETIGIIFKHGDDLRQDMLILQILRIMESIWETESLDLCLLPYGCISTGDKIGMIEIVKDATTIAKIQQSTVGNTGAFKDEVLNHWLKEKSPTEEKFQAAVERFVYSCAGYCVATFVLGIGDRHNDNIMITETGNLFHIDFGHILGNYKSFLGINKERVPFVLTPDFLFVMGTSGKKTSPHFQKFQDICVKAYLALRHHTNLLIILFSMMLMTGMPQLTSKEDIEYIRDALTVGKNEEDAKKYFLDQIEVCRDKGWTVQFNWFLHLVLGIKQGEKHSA
measurement name: Ki

I am curious: what Ki value has been reported for CC(C)OCCCNC(=O)Nc1nc2ccc(-c3cncc(C(F)(F)F)c3)cc2s1 ? 10 to 100 nM

I am curious: what Ki value has been reported for CCCOCCNC(=O)Nc1nc2ccc(-c3cncc(C(F)(F)F)c3)nc2s1 ? 10 to 100 nM

I am curious: what Ki value has been reported for CCCOCCCNC(=O)Nc1nc2ccc(-c3cncc(C(F)(F)F)c3)nc2s1 ? 10 to 100 nM

I am curious: what Ki value has been reported for COCCCNC(=O)Nc1nc2ccc(-c3cncc(C(F)(F)F)c3)nc2s1 ? ≤ 10 nM

I am curious: what Ki value has been reported for CCOCCCNC(=O)Nc1nc2ccc(-c3cncc(C(F)(F)F)c3)nc2s1 ? ≤ 10 nM

I am curious: what Ki value has been reported for CCNC(=O)Nc1nc2ccc(-c3cncc(C(F)(F)F)c3)nc2s1 ? ≤ 10 nM

---

assay: Evaluation of Brain/Plasma Concentrations; format: in vivo; conditions: Sprague-Dawley rats, 10 mg/kg oral intragastric in 0.5% MC, two hours after administration; based on a density of rat plasma of 1.0 g/mL; read-out: Plasma Conc.
Please respond with reported concentration at 2 h for every item in the list.

I am curious: what concentration at 2 h value has been reported for COCCCNC(=O)Nc1nc2ccc(-c3cncc(C(F)(F)F)c3)nc2s1 [Compound 10] ? 985 ng/mL

I am curious: what concentration at 2 h value has been reported for CCOCCCNC(=O)Nc1nc2ccc(-c3cncc(C(F)(F)F)c3)nc2s1 [Compound 11] ? 210 ng/mL

I am curious: what concentration at 2 h value has been reported for CCCOCCNC(=O)Nc1nc2ccc(-c3cncc(C(F)(F)F)c3)nc2s1 [Compound 1] ? 197 ng/mL

---

Please respond with reported pKi for every item in the list.
Biological target: PI3Kα (Homo sapiens)
Sequence (P42336 whole entry, species assumed, canonical isoform): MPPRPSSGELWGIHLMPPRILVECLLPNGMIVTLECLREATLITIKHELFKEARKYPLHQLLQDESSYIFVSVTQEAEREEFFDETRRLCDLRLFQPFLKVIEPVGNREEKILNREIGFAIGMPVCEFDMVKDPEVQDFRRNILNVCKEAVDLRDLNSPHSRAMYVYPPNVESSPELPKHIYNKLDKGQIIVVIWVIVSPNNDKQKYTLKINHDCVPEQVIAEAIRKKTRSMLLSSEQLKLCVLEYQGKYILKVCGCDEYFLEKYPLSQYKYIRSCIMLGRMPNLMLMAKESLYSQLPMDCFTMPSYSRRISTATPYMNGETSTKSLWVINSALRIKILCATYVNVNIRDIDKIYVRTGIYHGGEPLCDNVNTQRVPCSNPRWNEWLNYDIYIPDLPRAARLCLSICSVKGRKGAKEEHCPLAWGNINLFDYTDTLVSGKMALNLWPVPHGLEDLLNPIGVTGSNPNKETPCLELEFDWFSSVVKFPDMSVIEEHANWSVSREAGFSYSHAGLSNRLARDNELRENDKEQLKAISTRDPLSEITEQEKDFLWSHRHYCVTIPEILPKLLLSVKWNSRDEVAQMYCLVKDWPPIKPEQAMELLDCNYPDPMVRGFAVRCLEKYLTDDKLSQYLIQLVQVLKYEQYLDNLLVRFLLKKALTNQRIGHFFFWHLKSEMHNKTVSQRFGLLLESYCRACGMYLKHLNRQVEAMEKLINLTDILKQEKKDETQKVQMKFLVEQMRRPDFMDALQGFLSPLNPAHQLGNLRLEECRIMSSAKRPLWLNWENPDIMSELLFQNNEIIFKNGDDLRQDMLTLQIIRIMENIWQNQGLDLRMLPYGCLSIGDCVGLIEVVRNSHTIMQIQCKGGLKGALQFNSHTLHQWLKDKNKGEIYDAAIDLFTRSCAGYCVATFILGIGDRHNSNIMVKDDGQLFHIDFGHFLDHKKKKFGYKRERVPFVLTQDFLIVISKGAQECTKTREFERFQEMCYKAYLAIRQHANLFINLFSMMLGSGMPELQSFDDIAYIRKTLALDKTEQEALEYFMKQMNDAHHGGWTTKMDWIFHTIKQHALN
Sequence (P27986 whole entry partner, species assumed, canonical isoform): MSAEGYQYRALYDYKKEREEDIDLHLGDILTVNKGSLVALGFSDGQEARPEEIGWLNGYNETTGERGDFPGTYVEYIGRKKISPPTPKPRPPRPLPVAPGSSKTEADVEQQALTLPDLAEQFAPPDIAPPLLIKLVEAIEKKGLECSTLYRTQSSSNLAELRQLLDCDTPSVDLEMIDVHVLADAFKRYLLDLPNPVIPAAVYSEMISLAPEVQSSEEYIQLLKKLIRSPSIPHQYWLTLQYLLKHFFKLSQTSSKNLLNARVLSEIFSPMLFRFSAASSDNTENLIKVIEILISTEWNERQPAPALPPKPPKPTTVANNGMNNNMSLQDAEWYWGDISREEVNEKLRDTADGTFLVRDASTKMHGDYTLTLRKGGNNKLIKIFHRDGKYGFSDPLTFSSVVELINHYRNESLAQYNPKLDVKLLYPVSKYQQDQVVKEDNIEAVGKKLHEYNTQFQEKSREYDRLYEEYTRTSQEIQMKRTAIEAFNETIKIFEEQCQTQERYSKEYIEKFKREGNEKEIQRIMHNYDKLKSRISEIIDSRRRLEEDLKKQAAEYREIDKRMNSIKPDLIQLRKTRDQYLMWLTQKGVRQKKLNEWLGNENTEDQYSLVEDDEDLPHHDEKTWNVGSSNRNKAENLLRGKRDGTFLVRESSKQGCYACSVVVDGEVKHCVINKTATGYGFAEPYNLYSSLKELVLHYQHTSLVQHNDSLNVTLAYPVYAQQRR
Experiment: PI3K Inhibition Assay (33P-ATP, PI(4,5)P2 substrate), PI3Kα isoform
Format: biochemical
Conditions: 2 nM final enzyme, 3 μM ATP, 30 μM PI(4,5)P2; competitive tight binding Ki fit
Experimental: Using a Biomek FX from Beckman Coulter, 1.5 μL of each of ten 2.5-fold serial dilutions of a compound of the invention in 100% DMSO was added to an individual well (hereafter, “test well”) in a 96 well polystyrene plate [Corning, Costar Item No. 3697]. One test well also contained 1.5 μL of DMSO with no compound. […]
pKi: −log10 of the molar value.

I am curious: what pKi value has been reported for CC(C)OCCCNC(=O)Nc1nc2ccc(-c3cncc(C(F)(F)F)c3)cc2s1 ? 5.40 to 7.00

I am curious: what pKi value has been reported for COCCCNC(=O)Nc1nc2ccc(-c3cncc(C(F)(F)F)c3)nc2s1 ? 7.00 to 8.00

I am curious: what pKi value has been reported for CCCOCCNC(=O)Nc1nc2ccc(-c3cncc(C(F)(F)F)c3)nc2s1 ? 5.40 to 7.00

I am curious: what pKi value has been reported for CCNC(=O)Nc1nc2ccc(-c3cncc(C(F)(F)F)c3)nc2s1 ? 7.00 to 8.00

I am curious: what pKi value has been reported for CCCOCCCNC(=O)Nc1nc2ccc(-c3cncc(C(F)(F)F)c3)nc2s1 ? 5.40 to 7.00

I am curious: what pKi value has been reported for CCOCCCNC(=O)Nc1nc2ccc(-c3cncc(C(F)(F)F)c3)nc2s1 ? 5.40 to 7.00
